test: clinical; settings: human, in vivo, po, 50 mg
Where a name gives a salt, the structure may show the parent alone.
metric-name: AUC(0-t) (ng·h/mL)

- COc1cccc([C@]2(O)CCCC[C@H]2CN(C)C)c1 (racemic) [Tramadol, hydrochloride]: 4360

###

assay: clinical; details: human, in vivo, iv, 50 mg
Where a name gives a salt, the structure may show the parent alone.
metric-name: AUC (ng·h/mL)

* COc1cccc([C@]2(O)CCCC[C@H]2CN(C)C)c1 (racemic) [Tramadol, hydrochloride] | 1960

###

Assay: clinical
Conditions: human, in vivo, iv, 50 mg
Method: The secondary objectives of the study are to assess the safety and tolerability of the study medication. The study was an open-label, single-period, randomized, parallel treatment design. The subjects underwent screening within 4 weeks of dosing. […] No food was administered until 4 hours after dosing on Day 3. […] Study drug tolerability was evaluated by Investigator assessment and evaluation of adverse event frequency and severity, including irritation at the injection site. […]
Structures can show the parent of a compound that is named as a salt.
metric-name: half-life (h)

• COc1cccc([C@]2(O)CCCC[C@H]2CN(C)C)c1 (racemic) [Tramadol, hydrochloride] = 6.61
